assay: solubility in water
Format: physicochemical
test.context: pH 3, aqueous buffer
measured.property: solubility

Ask | solubility lookup needed for O=C(NCCN1CCOCC1)Nc1nc2ccc(Sc3nnc4ccc(-c5ccc(F)cc5)nn34)cc2s1 , thanks.
Reply | ~20 µg/mL
